- Tested on: morningglory (Ipomoea coccinea)
- ASSAY_PROCEDURE: Test A pre-/postemergence plant response
- Assay type: in vivo
- MEASUREMENT_PARAMETERS: Preemergence, 31 g ai/ha; 0 to 100 scale, 0 is no effect, 100 is complete control
Listed molecules paired with reported Plant response rating, Morningglory
MEASURED_PARAMETER: Plant response rating, Morningglory

1) Cc1cc(-c2ccc(Cl)cc2)nn1-c1c(OS(=O)(=O)C(C)C)cnn(C)c1=O [Compound 50]    0
2) CCCC(=O)Oc1cnn(C)c(=O)c1-n1nc(-c2ccc(Cl)cc2)cc1C [Compound 56]    0
3) Cc1cc(-c2ccc(Cl)cc2)nn1-c1c(OC(=O)c2cccc(Cl)c2)cnn(C)c1=O [Compound 32]    0
4) Cc1cc(-c2ccc(Cl)cc2)nn1-c1c(OS(=O)(=O)c2ccccc2)cnn(C)c1=O [Compound 35]    0
5) Cc1cc(-c2ccc(Cl)cc2)nn1-c1c(OS(=O)(=O)C2CC2)cnn(C)c1=O [Compound 49]    0

---

- System: Italian ryegrass (Lolium multiflorum)
- ASSAY_PROCEDURE: Test B pre-/postemergence plant response
- Format: in vivo
- MEASUREMENT_PARAMETERS: Postemergence, 62 g ai/ha; scale 0 to 100, 0 no effect, 100 complete control
MEASURED_PARAMETER: Plant response rating, Ryegrass, Italian

1) Cc1cc(-c2ccc(Cl)cc2)nn1-c1c(OC(=O)CC(C)C)cnn(C)c1=O    100
2) Cc1cc(-c2ccc(Cl)cc2)nn1-c1c(OC(=O)c2cccc(Cl)c2)cnn(C)c1=O    95
3) CCc1cc(-c2ccc(Br)cc2)nn1-c1c(O)cnn(CC(F)(F)F)c1=O    100
4) Cc1cc(-c2ccc(Cl)cc2)nn1-c1c(OS(=O)(=O)c2ccccc2)cnn(C)c1=O    98
5) Cc1cc(-c2ccc(Cl)cc2)nn1-c1c(OC(=O)c2cccs2)cnn(C)c1=O    100
6) COc1nn(C)c(=O)c(-n2nc(-c3ccc(Br)cc3)cc2C)c1O    100

---

Listed molecules paired with reported Plant response rating, Canarygrass
- Test system: canarygrass (Phalaris minor)
- ASSAY_PROCEDURE: Test B postemergence plant response
- Assay type: in vivo
- MEASUREMENT_PARAMETERS: Postemergence, 62 g ai/ha; scale 0 to 100, 0 no effect, 100 complete control
MEASURED_PARAMETER: Plant response rating, Canarygrass

1) Cc1cc(-c2ccc(Cl)cc2)nn1-c1c(OC(=O)CC(C)C)cnn(C)c1=O [Compound 37]    40
2) Cc1cc(-c2ccc(Cl)cc2)nn1-c1c(OC(=O)c2ccccc2Cl)cnn(C)c1=O [Compound 38]    30
3) Cc1nn(C)c(=O)c(-c2nc(-c3ccc(Cl)cc3)sc2C)c1O [Compound 79]    95
4) COc1nn(C)c(=O)c(-n2nc(-c3ccc(Br)cc3)cc2C)c1O [Compound 82]    100
5) CCCc1cc(-c2ccc(Cl)cc2)nn1-c1c(O)cnn(C)c1=O [Compound 43]    95

---

- Test system: johnsongrass (Sorghum halepense)
- ASSAY_PROCEDURE: Test B pre-/postemergence plant response
- Type: in vivo
- MEASUREMENT_PARAMETERS: Preemergence, 16 g ai/ha; scale 0 to 100 (0 no effect, 100 complete control)
Listed compounds paired with reported Plant response rating, Johnsongrass
MEASURED_PARAMETER: Plant response rating, Johnsongrass

1. Cc1cc(-c2ccc(Cl)cc2)nn1-c1c(OS(=O)(=O)C(C)C)cnn(C)c1=O    95
2. Cc1ccc(-c2ccc(Cl)cc2)cc1-c1c(O)cnn(C)c1=O    55
3. CCc1cc(-c2ccc(Cl)cc2)nn1-c1c(O)cnn(C)c1=O    85
4. CCc1cc(-c2ccc(C(F)(F)F)cc2)nn1-c1c(OC(=O)OC(C)C)cnn(C)c1=O    70
